Biological target: Glucagon-like peptide 1 receptor (Homo sapiens) (UniProt P43220)
Sequence (P43220 whole entry, looked up): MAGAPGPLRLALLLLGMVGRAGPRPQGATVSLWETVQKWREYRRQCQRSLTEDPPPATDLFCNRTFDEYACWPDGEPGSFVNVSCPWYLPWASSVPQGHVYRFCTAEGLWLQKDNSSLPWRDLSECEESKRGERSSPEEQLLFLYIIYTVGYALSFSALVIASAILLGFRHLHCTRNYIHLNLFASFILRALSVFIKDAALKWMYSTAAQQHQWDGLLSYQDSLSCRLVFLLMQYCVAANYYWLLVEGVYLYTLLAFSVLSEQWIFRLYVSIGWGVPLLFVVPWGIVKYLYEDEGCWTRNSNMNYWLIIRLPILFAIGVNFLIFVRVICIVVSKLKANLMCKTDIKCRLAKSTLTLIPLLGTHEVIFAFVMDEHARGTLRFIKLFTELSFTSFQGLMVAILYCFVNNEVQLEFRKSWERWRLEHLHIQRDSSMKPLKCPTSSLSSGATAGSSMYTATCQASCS
Test: qHTS of GLP-1 Receptor Inverse Agonists (Inhibition Mode); further: nearly all actives have a fitted effect of over 55% in size
Details: HEK293 GLP-1R CRE-luciferase, luminescence, 24 h, GLP-1R form is constitutively active; series mostly up to 38.3 µM
Hit rate of the full screen: of about 410,000 compounds, about 6,400 (1.6%) were called active. Roughly 20% stayed inconclusive and do not appear here. The call rests on the fitted dose curve; in most records, active means well fitted inhibition curve with a large enough effect; inconclusive means small, poorly fitted or top-dose-only effect; inactive means no such curve, though single readings can be large or run the other way. The full list was thinned out, with actives kept by preference.
Hi there, use one of these labels in your reply, thanks! active, inactive

# example entries with known answers
* O=C(NCc1ccccc1)C(c1ccc(F)cc1)N1CCN(C(=O)C2CCCO2)CC1 (stereo not given) | inactive
* CC(=O)c1ccc(Nc2nc(C(N)c3ccccc3Cl)cs2)cc1 (stereo not given) | inactive
* Cc1ccc(F)c(S(=O)(=O)NC(=O)C2(C)CCN2C(=O)c2ccco2)c1 (stereo not given) | inactive
* CCOc1cccc(C(=O)Nc2cnn(Cc3ccccc3)c2)c1 | active
* CCOC(=O)c1c(NC(=S)SC)sc(C(=O)N2CCc3ccccc3C2)c1C | inactive
* Cc1sc2ncnc(SCC(=O)NC3CCS(=O)(=O)C3)c2c1C (stereo not given) | inactive

Each compound tested received a call. Report the one for CCOc1cccc(C(=O)Nc2nnc(-c3cccs3)s2)c1 .
inactive

Each compound tested received a call. Report the one for CC1(C(=O)Nc2ccc3c(c2)OCCO3)CN(S(C)(=O)=O)CC(=O)N1Cc1cccc(F)c1 (stereo not given) .
inactive

Each compound tested received a call. Report the one for Cc1ccc(C)c(NC(=S)NNC(=S)Nc2ccc(C(C)C)cc2)c1 .
active

Each compound tested received a call. Report the one for C[C@@H]1CN([C@@H](C)CO)C(=O)c2c(c3ccccc3n2C)-c2ccccc2CO[C@H]1CN(C)C(=O)C1CC1 .
inactive
